- measurement-target: furin, P09958;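 note: purified furin at 1:10 enzyme:substrate in 50 mM HEPES pH 7.5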
- Sequence (P09958 whole entry): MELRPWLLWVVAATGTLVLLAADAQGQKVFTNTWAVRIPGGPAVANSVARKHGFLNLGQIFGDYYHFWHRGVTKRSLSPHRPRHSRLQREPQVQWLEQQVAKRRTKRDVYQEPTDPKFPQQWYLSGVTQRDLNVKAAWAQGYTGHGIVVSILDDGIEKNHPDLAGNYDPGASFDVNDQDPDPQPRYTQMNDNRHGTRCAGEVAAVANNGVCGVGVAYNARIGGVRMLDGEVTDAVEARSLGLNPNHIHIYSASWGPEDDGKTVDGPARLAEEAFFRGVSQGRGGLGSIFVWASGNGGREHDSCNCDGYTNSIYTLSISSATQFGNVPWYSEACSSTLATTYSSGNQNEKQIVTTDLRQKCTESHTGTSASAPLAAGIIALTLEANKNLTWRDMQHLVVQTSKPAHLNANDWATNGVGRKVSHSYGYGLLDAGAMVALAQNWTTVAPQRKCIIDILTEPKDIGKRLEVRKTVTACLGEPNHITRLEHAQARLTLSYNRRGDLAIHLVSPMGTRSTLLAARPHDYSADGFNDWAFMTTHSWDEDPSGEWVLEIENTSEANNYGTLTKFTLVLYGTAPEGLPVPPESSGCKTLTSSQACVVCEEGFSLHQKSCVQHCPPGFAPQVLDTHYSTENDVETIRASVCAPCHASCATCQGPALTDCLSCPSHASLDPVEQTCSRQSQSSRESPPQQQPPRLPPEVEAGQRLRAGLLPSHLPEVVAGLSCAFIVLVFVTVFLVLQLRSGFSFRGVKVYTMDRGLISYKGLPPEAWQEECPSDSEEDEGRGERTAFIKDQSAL
- procedure-summary: furin cleavage Z-score vs untreated control; higher = more cleavage, active = 3.5 or more, inactive = 1 or less, 8 variable residues between constant flanks
- study-conditions: 30 min
Some of the results follow. The true hit rate is not given.
Item-by-item account of furin cleavage Z-score
quantity-kind: furin cleavage Z-score

1) CAMSGRRLREAGNASASA [FS-1468] :: 3.6
2) CACAWYELTPAGNASASA [HC923] :: -1.48
3) CATTPCLGSWAGNASASA [HC64] :: 0.646
4) CARPPRSPDHAGNASASA [FS-2740] :: 4.52
5) CAVVLTESTLAGNASASA [HC1327] :: 0.957
6) CASKVRKSRSAGNASASA [FS-1166] :: 8.46
7) CANKSRSARSAGNASASA [FS-467] :: 7.08
8) CAVLSRASRSAGNASASA [FS-104] :: 7.05
9) CAHLNSTALNAGNASASA [HC371] :: 0.52
10) CARTGKVKRSAGNASASA [FS-497] :: 8.07
11) CASFDPLVAEAGNASASA [HC1288] :: 0.659
12) CASTPCSAHIAGNASASA [HC2564] :: -0.677
13) CACLVDYPYRAGNASASA [HC464] :: 0.308
14) CALWMMLLISAGNASASA [HC528] :: -0.913
15) CAASPKGPVIAGNASASA [HC706] :: -0.477
